These measurements were taken from the supplement of paper PMC10307832.

Test system: NCI-H650
Assay: relative viability (nuclei count vs DMSO), 5 days (fraction); higher = more cells survive
Details: first compound 0.02 µM
Let's look at some compounds and their measured relative viability.
Format: numeric value only, no unit, no commentary.

Previously resolved entries follow.
compound	relative viability
CC(=O)O[C@@]12CO[C@@H]1C[C@H](O)[C@@]1(C)C(=O)[C@H](O)C3=C(C)[C@@H](OC(=O)[C@H](O)[C@@H](NC(=O)OC(C)(C)C)c4ccccc4)C[C@@](O)([C@@H](OC(=O)c4ccccc4)[C@H]21)C3(C)C [Docetaxel] + CS(=O)(=O)CCNCc1ccc(-c2ccc3ncnc(Nc4ccc(OCc5cccc(F)c5)c(Cl)c4)c3c2)o1 [Lapatinib] (partner 2 µM)	0.168
CC(=O)O[C@@]12CO[C@@H]1C[C@H](O)[C@@]1(C)C(=O)[C@H](O)C3=C(C)[C@@H](OC(=O)[C@H](O)[C@@H](NC(=O)OC(C)(C)C)c4ccccc4)C[C@@](O)([C@@H](OC(=O)c4ccccc4)[C@H]21)C3(C)C [Docetaxel] + NC(=O)Nc1cc(-c2cccc(F)c2)sc1C(=O)N[C@H]1CCCNC1 [AZD7762] (partner 0.2 µM)	0.239

Proceeding to the next compound to report its relative viability.
Challenge: Give recorded relative viability with NCI-H650 for the following compound: CC(=O)O[C@@]12CO[C@@H]1C[C@H](O)[C@@]1(C)C(=O)[C@H](O)C3=C(C)[C@@H](OC(=O)[C@H](O)[C@@H](NC(=O)OC(C)(C)C)c4ccccc4)C[C@@](O)([C@@H](OC(=O)c4ccccc4)[C@H]21)C3(C)C [Docetaxel] + CC(=O)Nc1cccc(-n2c(=O)n(C3CC3)c(=O)c3c(Nc4ccc(I)cc4F)n(C)c(=O)c(C)c32)c1 [Trametinib] (partner 0.02 µM)
Response given: 0.16
